# credit: patent US20240279318A1

# assay.system: T1, AFP158/HLA-A*02:01 complex (human)
# T1 construct: flowed over the chip in SPR; also called AFP158 pro
# protocol.text: SPR, scFv captured, pMHC in flow;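 further: complex injected at several concentrations over crude scFv, association then running-buffer dissociation, KD estimated from kinetic on- and off-rate constants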
// assign 1 if Kd falls strictly below 0.2 µM, else -1 (ties count as -1)

Criterion: Kd strictly below 0.2 µM. Is it met by LY93I (scFv, AS170036 VL1VH1 scFv mutein) scFv: QSALTQPRSVSGSPGQSVTISCAGTSSDVGSENYVSWYQQHPGKAPKLMIYQVNKRASGVPDRFSGSKSGNTASLTISGLQAEDEADYYCASIRSSDHNIVFGGGTKLTVLGGGGSGGGGSGGGGSEVQLVESGGGLVQPGGSLRLSCAASGFTFSSYAMSWVRQAPGKGLEWVSTINSGTGSPYYADSVKGRFTISRDNSKNTLYLQMNSLRAEDTAVYYCAKNFFDGSWFLGPPAMDYWGQGTLVTVSSHHHHHH ?
-1

Criterion: Kd strictly below 0.2 µM. Is it met by LH98S (scFv, AS170036 VL1VH1 scFv mutein) scFv: QSALTQPRSVSGSPGQSVTISCAGTSSDVGSENYVSWYQQHPGKAPKLMIYQVNKRASGVPDRFSGSKSGNTASLTISGLQAEDEADYYCASYRSSDSNIVFGGGTKLTVLGGGGSGGGGSGGGGSEVQLVESGGGLVQPGGSLRLSCAASGFTFSSYAMSWVRQAPGKGLEWVSTINSGTGSPYYADSVKGRFTISRDNSKNTLYLQMNSLRAEDTAVYYCAKNFFDGSWFLGPPAMDYWGQGTLVTVSSHHHHHH ?
1

Criterion: Kd strictly below 0.2 µM. Is it met by LH98G (scFv, AS170036 VL1VH1 scFv mutein) scFv: QSALTQPRSVSGSPGQSVTISCAGTSSDVGSENYVSWYQQHPGKAPKLMIYQVNKRASGVPDRFSGSKSGNTASLTISGLQAEDEADYYCASYRSSDGNIVFGGGTKLTVLGGGGSGGGGSGGGGSEVQLVESGGGLVQPGGSLRLSCAASGFTFSSYAMSWVRQAPGKGLEWVSTINSGTGSPYYADSVKGRFTISRDNSKNTLYLQMNSLRAEDTAVYYCAKNFFDGSWFLGPPAMDYWGQGTLVTVSSHHHHHH ?
-1

Criterion: Kd strictly below 0.2 µM. Is it met by LE32D (scFv, AS170036 VL1VH1 scFv mutein) scFv: QSALTQPRSVSGSPGQSVTISCAGTSSDVGSDNYVSWYQQHPGKAPKLMIYQVNKRASGVPDRFSGSKSGNTASLTISGLQAEDEADYYCASYRSSDHNIVFGGGTKLTVLGGGGSGGGGSGGGGSEVQLVESGGGLVQPGGSLRLSCAASGFTFSSYAMSWVRQAPGKGLEWVSTINSGTGSPYYADSVKGRFTISRDNSKNTLYLQMNSLRAEDTAVYYCAKNFFDGSWFLGPPAMDYWGQGTLVTVSSHHHHHH ?
1

Criterion: Kd strictly below 0.2 µM. Is it met by LY34S (scFv, AS170036 VL1VH1 scFv mutein) scFv: QSALTQPRSVSGSPGQSVTISCAGTSSDVGSENSVSWYQQHPGKAPKLMIYQVNKRASGVPDRFSGSKSGNTASLTISGLQAEDEADYYCASYRSSDHNIVFGGGTKLTVLGGGGSGGGGSGGGGSEVQLVESGGGLVQPGGSLRLSCAASGFTFSSYAMSWVRQAPGKGLEWVSTINSGTGSPYYADSVKGRFTISRDNSKNTLYLQMNSLRAEDTAVYYCAKNFFDGSWFLGPPAMDYWGQGTLVTVSSHHHHHH ?
-1
